readout_kind: melting point

INSERT INTO measurements (compound, readout_kind, result) VALUES
  ('COc1cc2ccc3c4cc(OC)c(OC)cc4nc(C)c3c2cc1OC [Compound 5]', 'melting point', '255 to 257 °C'),
  ('COc1cc2ncc3c4cc5c(cc4ccc3c2cc1OC)OCO5 [Compound 6]', 'melting point', '> 250 °C'),
  ('COc1cc2ccc3c4cc(OC)c(OC)cc4ncc3c2cc1OC [Compound 4]', 'melting point', '267 to 268 °C'),
  ('COc1cc2ccc3c4cc5c(cc4ncc3c2cc1OC)OCO5 [Compound 28]', 'melting point', '171 °C'),
  ('COc1cc2nc(C)c3c4cc5c(cc4ccc3c2cc1OC)OCO5 [Compound 7]', 'melting point', '> 250 °C');

Next, consider the following compound.
Query: Query (compound): COc1ccc2c(c1)ncc1c3cc(OC)c(OC)cc3ccc21 [Example 9, 2,3,8-Trimethoxybenzo[i]phenanthridine] ; field requested: melting point
Result: 200 to 202 °C

* * *

# target_desc: human topoisomerase I (Homo sapiens)
# Construct: made in house
# Sequence (P11387 whole entry): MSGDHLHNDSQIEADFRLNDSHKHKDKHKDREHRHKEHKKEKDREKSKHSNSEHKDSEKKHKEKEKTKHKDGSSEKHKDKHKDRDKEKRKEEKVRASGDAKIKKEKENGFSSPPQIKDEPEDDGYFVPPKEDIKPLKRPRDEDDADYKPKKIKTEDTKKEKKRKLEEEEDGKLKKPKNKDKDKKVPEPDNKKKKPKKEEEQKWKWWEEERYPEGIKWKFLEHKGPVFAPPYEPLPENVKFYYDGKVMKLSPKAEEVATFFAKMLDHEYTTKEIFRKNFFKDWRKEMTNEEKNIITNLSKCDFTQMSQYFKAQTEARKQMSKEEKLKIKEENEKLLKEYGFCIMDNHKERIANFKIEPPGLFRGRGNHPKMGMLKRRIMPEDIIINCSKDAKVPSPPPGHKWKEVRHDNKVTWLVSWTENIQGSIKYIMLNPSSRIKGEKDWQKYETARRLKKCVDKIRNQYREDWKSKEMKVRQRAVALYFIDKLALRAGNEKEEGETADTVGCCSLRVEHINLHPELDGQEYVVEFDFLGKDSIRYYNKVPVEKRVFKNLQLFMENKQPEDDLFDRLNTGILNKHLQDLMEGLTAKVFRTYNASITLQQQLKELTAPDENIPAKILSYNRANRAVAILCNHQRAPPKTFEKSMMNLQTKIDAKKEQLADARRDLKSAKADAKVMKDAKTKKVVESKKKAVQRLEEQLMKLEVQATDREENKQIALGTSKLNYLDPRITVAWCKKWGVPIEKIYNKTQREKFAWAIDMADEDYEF
# method_summary: Topoisomerase I-mediated DNA cleavage assay (Test A)
# Format: biochemical
# condition_details: concentration relative to camptothecin (CPT = 1) producing the same cleavage on plasmid DNA; human topoisomerase I
Task for the reader: assign each of the following compounds its reported Topo I-mediated DNA cleavage (REC, Relative Effective Concentration).

INSERT INTO results (compound, result) VALUES
  ('COc1cc2ccc3c4cc(OC)c(OC)cc4nc(C)c3c2cc1OC', '>1000');

Batch lookup, Topo I-mediated DNA cleavage (REC, Relative Effective Concentration) per entry.
1. COc1cc2ccc3c4cc(OC)c(OC)cc4ncc3c2cc1OC
2. COc1cc([C@@H]2c3cc4c(cc3[C@@H](O[C@@H]3O[C@@H]5CO[C@@H](c6cccs6)O[C@H]5[C@H](O)[C@H]3O)[C@H]3COC(=O)[C@H]23)OCO4)cc(OC)c1O [VM-26, teniposide, reference compound]

Result:
[">1000", ">1000"]
